system: HT-29; experiment: Growth inhibition of human HT-29 cells after 48 hrs by sulforhodamine B assay; type: functional
result.type: GI (µM)
# output: bare number, implied unit µM

A selection of reference data follows.
# molecule, assay.system, unit.string, GI
data = [
    ("COc1ccc(/C=C/C2CC(=O)C=CO2)cc1OC (configuration not stated)", "HT-29", "µM", 123.2),
    ("COc1ccc(C2CC(=O)C(I)=CO2)cc1 (configuration not stated)", "HT-29", "µM", 24.4),
    ("COc1ccc(/C=C/c2cc(=O)cco2)cc1", "HT-29", "µM", 379.2),
    ("O=c1ccoc(/C=C/c2ccccc2)c1", "HT-29", "µM", 344.1),
]

Short answer for COc1ccc(/C=C/C2CC=CC(=O)O2)cc1OC (racemic) : GI was 17.2

Notebook: O=C1C=CCC(/C=C/c2ccccc2C(F)(F)F)O1 (racemic) , GI read as 71.7

Sure, the documented GI for COc1cc(/C=C/C2CC=CC(=O)O2)cc(OC)c1 (racemic) is 8.2

Entry under test: COc1cc(OC)c(OC)cc1/C=C/C1CC=CC(=O)O1 (racemic) . Its GI was 15.9

For O=C1C=CCC(/C=C/c2ccccc2C(F)(F)F)N1 (configuration not stated) the molecule record lists GI as 195.4

Recorded GI (molecule COc1ccc(/C=C/C2CC=CC(=O)O2)cc1 (racemic) ): 33.7

---

List of GI values.
test system: NCI-H460; test: Growth inhibition of human NCI-H460 cells after 48 hrs by sulforhodamine B assay; type: functional
// note: answer is a bare numeric in µM

# compound, GI [µM]
data = [
    ("O=C1C=CCC(/C=C/c2ccccc2)N1 (stereo unspecified)", 928.5),
    ("COc1ccc(/C=C/C2CC=CC(=O)O2)c(OC)c1 (racemic)", 6),
    ("COc1cc(OC)c(OC)cc1/C=C/C1CC=CC(=O)O1 (racemic)", 9.8),
]

The compound COc1cc(/C=C/C2CC=CC(=O)O2)cc(OC)c1OC (racemic) showed GI equal to 28.8

---

test system: NCI-H460; assay: Growth inhibition of human NCI-H460 cells after 48 hrs by sulforhodamine B assay; format: functional
result.type: GI (µM)
Entry rule: numbers only, all in µM.

Past entries and their recorded results:
# compound, assay.system, GI, µM
measured = [
    ("O=C1C=COC(/C=C/c2ccc3c(c2)OCO3)C1 (stereo unspecified)", "NCI-H460", 147.4),
    ("COc1cc(/C=C/C2CC=CC(=O)O2)cc(OC)c1 (racemic)", "NCI-H460", 9),
    ("O=C1C=COC(/C=C/c2ccc(C(F)(F)F)cc2)C1 (stereo unspecified)", "NCI-H460", 95.6),
]

Would you kindly look at the next entry?
Let me check: O=C1C=CCC(/C=C/c2ccccc2C(F)(F)F)N1 (stereo unspecified) , system NCI-H460, measured GI is 194.7

---

The reader will find reported GI values listed item by item below.
system: HT-29; experiment: Growth inhibition of human HT-29 cells after 48 hrs by sulforhodamine B assay; type: functional
Expressed in µM, but write only the number.

# compound, result.type, reported
rows = [
    ("COc1ccc(/C=C/C2CC=CC(=O)O2)c(OC)c1 (racemic)", "GI", 6.6),
]

Lab note: O=C1C=CCC(/C=C/c2ccccc2)N1 (stereo not given) gave GI of 1195.8

The recorded GI for COc1cc(/C=C/C2CC=CC(=O)N2)cc(OC)c1 (stereo not given) is 196.6

COc1cccc2c1C(=O)c1c(O)c3c(c(O)c1C2=O)C[C@@](O)(C(=O)CO)C[C@@H]3O[C@H]1C[C@H](N)[C@H](O)[C@H](C)O1 [DOXORUBICIN] has a reported GI of 13.9
